Reported pKb is given for each of the following compounds.
System name: Muscarinic acetylcholine receptor M3 (Rattus norvegicus)
Run description: In vitro antimuscarinic activity against the M3 muscarinic receptor subtype in rat bladder
No unit in the answer, only the number.

# annotated cases, reported pKb shown
Compound: CCN(CC)Cc1ccc(COC(=O)C(c2ccccc2)C2CCCCC2)o1 (stereo unspecified)
Reported value: 6
--
Compound: CN(C)Cc1ccc(COC(=O)C2c3ccccc3-c3ccccc32)o1
Reported value: 5.6
--
Compound: CN(C)Cc1ccc(COC(=O)C2c3ccccc3Oc3ccccc32)o1
Reported value: 6.6
--
Compound: CCCN(C)Cc1ccc(COC(=O)C(c2ccccc2)C2CCCCC2)o1 (stereo unspecified)
Reported value: 6

// compound CC(C)N(C)Cc1ccc(COC(=O)C(c2ccccc2)C2CCCCC2)o1 (stereo unspecified) , assay Muscarinic acetylcholine receptor M3 (Rattus norvegicus), pKb value: 6.7

// compound "CN(C)Cc1ccc(COC(=O)C(O)(C2CCCCC2)C2CCCCC2)o1" , assay Muscarinic acetylcholine receptor M3 (Rattus norvegicus), pKb value: 7.2

// compound O=C(OCc1ccc(CN2CCC(O)CC2)o1)C(c1ccccc1)C1CCCCC1 (stereo unspecified) , assay Muscarinic acetylcholine receptor M3 (Rattus norvegicus), pKb value: 6

// compound CN(C)Cc1ccc(COC(=O)C(c2ccccc2)C2CCCCC2)o1 (stereo unspecified) , assay Muscarinic acetylcholine receptor M3 (Rattus norvegicus), pKb value: 7.2

// compound O=C(OCc1ccc(CN2CCCCC2)o1)C(c1ccccc1)C1CCCCC1 (stereo unspecified) , assay Muscarinic acetylcholine receptor M3 (Rattus norvegicus), pKb value: 5.3

* * *

Reported pKb is given for each of the following molecules.
System name: Muscarinic acetylcholine receptor M3 (Rattus norvegicus) (UniProt P08483)
Sequence (P08483 whole entry, looked up): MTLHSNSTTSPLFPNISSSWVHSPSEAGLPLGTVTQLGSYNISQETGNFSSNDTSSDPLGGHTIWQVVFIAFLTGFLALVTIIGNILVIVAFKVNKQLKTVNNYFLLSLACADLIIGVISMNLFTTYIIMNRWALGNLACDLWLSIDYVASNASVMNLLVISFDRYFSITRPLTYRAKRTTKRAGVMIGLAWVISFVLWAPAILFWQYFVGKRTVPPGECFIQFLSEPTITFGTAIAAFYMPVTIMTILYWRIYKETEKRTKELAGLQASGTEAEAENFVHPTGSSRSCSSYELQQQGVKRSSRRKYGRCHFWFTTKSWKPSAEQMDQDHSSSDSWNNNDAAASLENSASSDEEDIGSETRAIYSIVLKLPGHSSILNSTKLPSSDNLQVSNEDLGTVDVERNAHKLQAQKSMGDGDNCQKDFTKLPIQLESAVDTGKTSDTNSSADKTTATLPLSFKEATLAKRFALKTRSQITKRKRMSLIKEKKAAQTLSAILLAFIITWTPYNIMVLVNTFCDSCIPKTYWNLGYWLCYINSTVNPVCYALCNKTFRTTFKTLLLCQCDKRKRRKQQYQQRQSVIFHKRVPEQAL
Run description: In vitro antimuscarinic activity against the M3 muscarinic receptor subtype in rat ileum
Format: tissue-based
No unit in the answer, only the number.

# annotated cases, reported pKb shown
Molecule: CCN(CC)Cc1ccc(COC(=O)C(c2ccccc2)C2CCCCC2)o1 (stereo unspecified)
pKb: 6.7

Molecule: CN(C)Cc1ccc(COC(=O)C2c3ccccc3Oc3ccccc32)o1
pKb: 7.1

Molecule: O=C(OCc1ccc(CN2CCCCC2)o1)C(c1ccccc1)c1ccccc1
pKb: 6

Molecule: O=C(OCc1ccc(CN2CCCCC2)o1)C(c1ccccc1)C1CCCCC1 (stereo unspecified)
pKb: 6.3

Molecule: CCCN(C)Cc1ccc(COC(=O)C(c2ccccc2)C2CCCCC2)o1 (stereo unspecified)
pKb: 6.8

Molecule: CCCCCN(C)Cc1ccc(COC(=O)C(c2ccccc2)C2CCCCC2)o1 (stereo unspecified)
pKb: 6.9

// below: pKb requested for another molecule
// molecule CN(C)Cc1ccc(COC(=O)C(c2ccccc2)C2CCCCC2)o1 (stereo unspecified) , assay Muscarinic acetylcholine receptor M3 (Rattus norvegicus) (UniProt P08483), pKb value: 7.3

* * *

System name: Muscarinic acetylcholine receptor M2 (Homo sapiens)
Sequence (whole entry): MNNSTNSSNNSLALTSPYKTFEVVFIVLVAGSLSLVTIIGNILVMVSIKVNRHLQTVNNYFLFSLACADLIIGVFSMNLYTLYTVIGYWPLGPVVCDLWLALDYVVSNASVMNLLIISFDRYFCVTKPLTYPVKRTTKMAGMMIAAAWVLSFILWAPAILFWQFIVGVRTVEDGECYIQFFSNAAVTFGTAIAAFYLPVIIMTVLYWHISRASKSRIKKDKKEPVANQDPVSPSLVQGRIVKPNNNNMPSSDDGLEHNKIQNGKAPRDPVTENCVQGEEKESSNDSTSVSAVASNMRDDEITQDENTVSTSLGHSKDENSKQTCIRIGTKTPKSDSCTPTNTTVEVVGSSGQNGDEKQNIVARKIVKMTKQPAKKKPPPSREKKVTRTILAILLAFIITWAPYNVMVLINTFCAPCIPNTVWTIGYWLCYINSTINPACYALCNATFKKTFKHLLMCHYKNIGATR
Run description: In vitro antimuscarinic activity against the M2 muscarinic receptor subtype in guinea pig atria
Particulars: Cavia porcellus; target entry is the homologue from another species
Experimental endpoint: pKb

# annotated cases, reported pKb shown
Molecule: O=C(OCc1ccc(CN2CCCCC2)o1)C(c1ccccc1)C1CCCCC1 (stereo not given)
Reported value: < 5
//
Molecule: CN(C)Cc1ccc(COC(=O)C(c2ccccc2)C2CCCCC2)o1 (stereo not given)
Reported value: 5.9
//
Molecule: CN(C)Cc1ccc(COC(=O)C(c2ccccc2)c2ccccc2)o1
Reported value: 5.9

// below: pKb requested for another molecule
Sure, the documented pKb for O=C(OCc1ccc(CN2CCC(O)CC2)o1)C(c1ccccc1)C1CCCCC1 (stereo not given) is < 5

* * *

Reported pKb is given for each of the following molecules.
System name: Muscarinic acetylcholine receptor M3 (Rattus norvegicus)
Run description: In vitro antimuscarinic activity against the M3 muscarinic receptor subtype in rat bladder
No unit in the answer, only the number.

# annotated cases, reported pKb shown
Molecule: O=C(OCc1ccc(CN2CCOCC2)o1)C(c1ccccc1)C1CCCCC1 (centres undefined)
System name: Muscarinic acetylcholine receptor M3 (Rattus norvegicus)
pKb: 5.7
//
Molecule: O=C(OCc1ccc(CN2CCCCC2)o1)C(c1ccccc1)c1ccccc1
System name: Muscarinic acetylcholine receptor M3 (Rattus norvegicus)
pKb: 6.2

Sure, the documented pKb for "CN(C)Cc1ccc(COC(=O)C(c2ccccc2)c2ccccc2)o1" is 6.5

* * *

System name: Muscarinic acetylcholine receptor M3 (Rattus norvegicus) (UniProt P08483)
Run description: In vitro antimuscarinic activity against the M3 muscarinic receptor subtype in rat ileum
Type: tissue-based
Reported pKb is given for each of the following compounds.
No unit in the answer, only the number.

Compound: CN(C)Cc1ccc(COC(=O)C(c2ccccc2)c2ccccc2)o1
pKb: 6.5

Sure, the documented pKb for "CN(C)Cc1ccc(COC(=O)C(O)(C2CCCCC2)C2CCCCC2)o1" is 7.1

Sure, the documented pKb for CN(Cc1ccc(COC(=O)C(c2ccccc2)C2CCCCC2)o1)C1CCCCC1 (centres undefined) is 6.5

* * *

System name: Muscarinic acetylcholine receptor M2 (Homo sapiens) (UniProt P08172)
Run description: In vitro antimuscarinic activity against the M2 muscarinic receptor subtype in guinea pig atria
Particulars: Cavia porcellus; target entry is the homologue from another species
Experimental endpoint: pKb

# annotated cases, reported pKb shown
Compound: CCCN(C)Cc1ccc(COC(=O)C(c2ccccc2)C2CCCCC2)o1 (stereo unspecified)
Reported value: < 5
--
Compound: CN(C)Cc1ccc(COC(=O)C(O)(C2CCCCC2)C2CCCCC2)o1
Reported value: < 5
--
Compound: CCCCCN(C)Cc1ccc(COC(=O)C(c2ccccc2)C2CCCCC2)o1 (stereo unspecified)
Reported value: < 5
--
Compound: CN(C)Cc1ccc(COC(=O)C2c3ccccc3Oc3ccccc32)o1
Reported value: 6.5
--
Compound: O=C(OCc1ccc(CN2CCCCC2)o1)C(c1ccccc1)c1ccccc1
Reported value: < 5
--
Compound: CN(Cc1ccccc1)Cc1ccc(COC(=O)C(c2ccccc2)C2CCCCC2)o1 (stereo unspecified)
Reported value: < 5

Sure, the documented pKb for CN(Cc1ccc(COC(=O)C(c2ccccc2)C2CCCCC2)o1)C1CCCCC1 (stereo unspecified) is < 4.5

Sure, the documented pKb for O=C(OCc1ccc(CN2CCOCC2)o1)C(c1ccccc1)C1CCCCC1 (stereo unspecified) is < 5

* * *

System name: UniProt:P08172
Sequence (whole entry): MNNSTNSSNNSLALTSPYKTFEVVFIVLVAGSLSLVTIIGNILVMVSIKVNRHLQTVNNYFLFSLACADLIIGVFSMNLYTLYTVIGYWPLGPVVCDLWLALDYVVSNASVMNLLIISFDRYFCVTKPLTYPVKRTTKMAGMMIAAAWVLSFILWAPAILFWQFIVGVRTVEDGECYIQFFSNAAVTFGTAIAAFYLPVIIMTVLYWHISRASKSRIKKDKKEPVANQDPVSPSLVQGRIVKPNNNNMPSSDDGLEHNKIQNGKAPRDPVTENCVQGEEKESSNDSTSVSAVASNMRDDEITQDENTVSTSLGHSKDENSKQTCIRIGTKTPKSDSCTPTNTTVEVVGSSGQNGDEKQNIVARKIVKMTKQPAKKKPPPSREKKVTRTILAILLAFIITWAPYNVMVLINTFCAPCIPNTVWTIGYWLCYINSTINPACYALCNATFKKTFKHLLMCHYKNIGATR
Run description: In vitro antimuscarinic activity against the M2 muscarinic receptor subtype in guinea pig atria
Particulars: Cavia porcellus; target entry is the homologue from another species
Experimental endpoint: pKb

// compound CCN(CC)Cc1ccc(COC(=O)C(c2ccccc2)C2CCCCC2)o1 (stereo not drawn) , assay UniProt:P08172, pKb value: < 5

// compound "CN(C)Cc1ccc(COC(=O)C2c3ccccc3-c3ccccc32)o1" , assay UniProt:P08172, pKb value: 4.8

// compound CC(C)N(C)Cc1ccc(COC(=O)C(c2ccccc2)C2CCCCC2)o1 (stereo not drawn) , assay UniProt:P08172, pKb value: 5

Taken from ChEMBL document CHEMBL1127431.
